Assay: In vivo pharmacokinetic study, blood time-concentration curve
Details: female, C57BL6/N, mouse, whole blood; single IP injection 10 mg/kg; mice
measured.attribute: half-life (h)
Number in h, nothing else.

half-life reported for this compound CC(C)(C)c1cc(C(=O)C(C#N)=NNc2cccc(Cl)c2)no1 : 3.5

----------
Biological target: UniProt Q9EQZ6
Sequence (Q9EQZ6 1-1011): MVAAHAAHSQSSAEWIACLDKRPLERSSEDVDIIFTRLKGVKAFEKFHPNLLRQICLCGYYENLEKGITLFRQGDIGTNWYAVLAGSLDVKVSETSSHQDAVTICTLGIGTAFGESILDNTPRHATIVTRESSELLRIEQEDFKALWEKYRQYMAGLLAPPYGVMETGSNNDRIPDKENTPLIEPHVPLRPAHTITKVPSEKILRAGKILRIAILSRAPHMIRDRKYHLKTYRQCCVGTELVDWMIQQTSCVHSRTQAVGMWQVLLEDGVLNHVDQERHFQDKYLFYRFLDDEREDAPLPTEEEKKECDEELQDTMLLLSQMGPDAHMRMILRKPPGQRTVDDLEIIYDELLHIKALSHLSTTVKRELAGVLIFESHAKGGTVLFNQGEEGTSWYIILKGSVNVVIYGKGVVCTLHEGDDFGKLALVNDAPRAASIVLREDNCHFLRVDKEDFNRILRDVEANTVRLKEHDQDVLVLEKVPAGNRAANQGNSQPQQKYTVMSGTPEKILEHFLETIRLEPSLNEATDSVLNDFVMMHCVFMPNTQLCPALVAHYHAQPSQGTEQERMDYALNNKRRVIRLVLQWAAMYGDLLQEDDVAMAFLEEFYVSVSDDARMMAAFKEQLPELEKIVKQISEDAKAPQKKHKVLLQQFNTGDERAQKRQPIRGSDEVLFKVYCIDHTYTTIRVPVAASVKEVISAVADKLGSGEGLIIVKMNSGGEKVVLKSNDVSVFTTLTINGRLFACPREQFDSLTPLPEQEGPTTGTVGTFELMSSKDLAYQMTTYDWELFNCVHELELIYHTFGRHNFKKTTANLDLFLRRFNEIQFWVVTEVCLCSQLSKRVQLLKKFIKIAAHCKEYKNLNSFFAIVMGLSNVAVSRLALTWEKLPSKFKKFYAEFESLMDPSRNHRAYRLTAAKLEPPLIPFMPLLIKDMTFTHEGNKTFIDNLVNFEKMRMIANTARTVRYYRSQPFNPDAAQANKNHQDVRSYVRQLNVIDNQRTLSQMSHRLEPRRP
Assay: Rap1-GDP exchange (GEF) activity assay, EPAC2
measured.attribute: pIC50
Interpret pIC50 as the negative base-10 log of the concentration measured in mol/L.

# pIC50 of CC(C)(C)c1cc(C(=O)C(C#N)=NNc2cccc(Cl)c2)no1 = 5.85
